# Assay explanation: In vitro thromboxane receptor antagonist against U-46619 induced aggregation of washed human platelets
Assay endpoint: IC50
Units required after the number.

Here's what some known entries look like.
>>> df
                                smiles_code  obs_value
0  O=C(O)CC/C=C\CC[C@H]1[C@H](OCc2ccc(-c3ccccc3)cc2)CO[C@H]1c1cccnc1     820 nM
1  O=C(O)CCCCO/N=C(/c1cccnc1)c1cccc(C(F)(F)F)c1    1280 nM
2  O=C(O)CC/C=C\CC[C@H]1[C@@H](OCc2ccc(-c3ccccc3)cc2)CO[C@@H]1c1cccnc1      27 nM
3  O=C(O)CC/C=C\CC[C@@H]1[C@@H](c2cccnc2)OC[C@H]1OCc1ccc(-c2ccccc2)cc1      88 nM

Next item in the queue.
INPUT: I'd like to know its IC50. The compound in question is O=C(O)CC/C=C\CC[C@H]1[C@@H](OCc2ccc(-c3ccccc3)cc2)CO[C@H]1c1cccnc1
OUTPUT: 795 nM
